protocol: Cmax in adult fasted Sprague-Dawley rat at 30 mg/kg, po administered as 125 mM aqueous Gly-Sar solution by HPLC-tandem mass spectrometry
Assay type: ADME, organism-based
Set-up: dose 30 mg/kg, route oral
test-parameters: in vivo
property: Cmax (ng/mL)

INSERT INTO assay_data (molecule, property, experimental_value) VALUES
  ('CCOC(=O)C1=C[C@@H](OC(CC)CC)[C@H](NC(C)=O)[C@@H](N)C1 [OSELTAMIVIR]', 'Cmax', 2070),
  ('CCC(CC)O[C@@H]1C=C(C(=O)O)C[C@H](N)[C@H]1NC(C)=O [OSELTAMIVIR CARBOXYLATE]', 'Cmax', 2560);

* * *

protocol: AUC(0 to 24 hrs) in adult fed Sprague-Dawley rat at 30 mg/kg, po administered as water solution by HPLC-tandem mass spectrometry
Type: ADME, organism-based
Set-up: time < 24 hr, dose 30 mg/kg, route oral
test-parameters: plasma
property: AUC(0-t) at 24 h (ng·h/mL)

[I] CCC(CC)O[C@@H]1C=C(C(=O)O)C[C@H](N)[C@H]1NC(C)=O [OSELTAMIVIR CARBOXYLATE]
[II] CCOC(=O)C1=C[C@@H](OC(CC)CC)[C@H](NC(C)=O)[C@@H](N)C1
Input line: From the recorded data, which exceeds the other in AUC(0-t) at 24 h: I or II ? API: response body contains the label of the selected item.
Output line: I
(I: 5280 ng·h/mL, II: 2510 ng·h/mL)

* * *

protocol: Apparent oral clearance in healthy human at 150 mg, po administered as single dose by HPLC-tandem mass spectrometry under fed conditions
Format: ADME, organism-based
test-parameters: in vivo
property: CL/F (mL/min)

[P] CCOC(=O)C1=C[C@@H](OC(CC)CC)[C@H](NC(C)=O)[C@@H](N)C1
[Q] CCC(CC)O[C@@H]1C=C(C(=O)O)C[C@H](N)[C@H]1NC(C)=O [OSELTAMIVIR CARBOXYLATE]
Input line: // select label with min value of measured CL/F from [ P , Q ] API: response body contains the label of the selected item.
Output line: Q
(Q: 385 mL/min, P: 9540 mL/min)

* * *

protocol: AUC(0 to 5 hrs) in juvenile fasted Sprague-Dawley rat at 30 mg/kg, po administered as 125 mM aqueous Gly-Sar solution by HPLC-tandem mass spectrometry
Format: ADME, organism-based
Parameters: time < 5 hr, dose 30 mg/kg, route oral
test-parameters: plasma
property: AUC(0-t) at 5 h (ng·h/mL)

[P] CCOC(=O)C1=C[C@@H](OC(CC)CC)[C@H](NC(C)=O)[C@@H](N)C1
[Q] CCC(CC)O[C@@H]1C=C(C(=O)O)C[C@H](N)[C@H]1NC(C)=O [OSELTAMIVIR CARBOXYLATE]
Input line: From the recorded data, which exceeds the other in AUC(0-t) at 5 h: P or Q ? API: response body contains the label of the selected item.
Output line: P
(P: 27100 ng·h/mL, Q: 10900 ng·h/mL)

* * *

protocol: Apparent oral clearance in healthy human at 150 mg, po administered as single dose by HPLC-tandem mass spectrometry under fasting conditions
Type: ADME, organism-based
test-parameters: in vivo
property: CL/F (mL/min)

[A] CCC(CC)O[C@@H]1C=C(C(=O)O)C[C@H](N)[C@H]1NC(C)=O [OSELTAMIVIR CARBOXYLATE]
[B] CCOC(=O)C1=C[C@@H](OC(CC)CC)[C@H](NC(C)=O)[C@@H](N)C1 [OSELTAMIVIR]
Input line: // select label with min value of measured CL/F from [ A , B ] API: response body contains the label of the selected item.
Output line: A

* * *

protocol: AUC(0 to 24 hrs) in healthy human at 150 mg, po administered as single dose by HPLC-tandem mass spectrometry under fed conditions
Format: ADME, organism-based
Design: time < 24 hr, dose 150 mg, route oral
test-parameters: plasma
property: AUC(0-t) at 24 h (ng·h/mL)

[1] CCOC(=O)C1=C[C@@H](OC(CC)CC)[C@H](NC(C)=O)[C@@H](N)C1 [OSELTAMIVIR]
[2] CCC(CC)O[C@@H]1C=C(C(=O)O)C[C@H](N)[C@H]1NC(C)=O [OSELTAMIVIR CARBOXYLATE]
Input line: From the recorded data, which exceeds the other in AUC(0-t) at 24 h: 1 or 2 ? API: response body contains the label of the selected item.
Output line: 2
(2: 5060 ng·h/mL, 1: 280 ng·h/mL)

* * *

protocol: AUC(0 to 24 hrs) in adult fed Sprague-Dawley rat at 30 mg/kg, po administered as solution in bovine milk by HPLC-tandem mass spectrometry
Format: ADME, organism-based
Set-up: time < 24 hr, dose 30 mg/kg, route oral
test-parameters: in vivo
property: AUC(0-t) at 24 h (ng·h/mL)

[P] CCOC(=O)C1=C[C@@H](OC(CC)CC)[C@H](NC(C)=O)[C@@H](N)C1 [OSELTAMIVIR]
[Q] CCC(CC)O[C@@H]1C=C(C(=O)O)C[C@H](N)[C@H]1NC(C)=O [OSELTAMIVIR CARBOXYLATE]
Input line: // select label with min value of measured AUC(0-t) at 24 h from [ P , Q ] API: response body contains the label of the selected item.
Output line: P
(P: 2800 ng·h/mL, Q: 6330 ng·h/mL)

* * *

protocol: Cmax in adult fed Sprague-Dawley rat at 30 mg/kg, po administered as 125 mM aqueous Gly-Sar solution by HPLC-tandem mass spectrometry
Type: ADME, organism-based
Set-up: dose 30 mg/kg, route oral
test-parameters: in vivo
property: Cmax (ng/mL)

INSERT INTO assay_data (molecule, property, experimental_value) VALUES
  ('CCOC(=O)C1=C[C@@H](OC(CC)CC)[C@H](NC(C)=O)[C@@H](N)C1', 'Cmax', 926),
  ('CCC(CC)O[C@@H]1C=C(C(=O)O)C[C@H](N)[C@H]1NC(C)=O [OSELTAMIVIR CARBOXYLATE]', 'Cmax', 693);

* * *

protocol: AUC(0 to infinity) in healthy human at 150 mg, po administered as single dose by HPLC-tandem mass spectrometry under fasting conditions
Format: ADME, organism-based
Set-up: dose 150 mg, route oral, time infinity
test-parameters: plasma
property: AUC(0-inf) (ng·h/mL)

[P] CCOC(=O)C1=C[C@@H](OC(CC)CC)[C@H](NC(C)=O)[C@@H](N)C1 [OSELTAMIVIR]
[Q] CCC(CC)O[C@@H]1C=C(C(=O)O)C[C@H](N)[C@H]1NC(C)=O [OSELTAMIVIR CARBOXYLATE]
Input line: // select label with min value of measured AUC(0-inf) from [ P , Q ] API: response body contains the label of the selected item.
Output line: P

* * *

protocol: AUC(0 to 6 hrs) in adult fed Sprague-Dawley rat at 30 mg/kg, po administered as 125 mM aqueous Gly-Sar solution by HPLC-tandem mass spectrometry
Format: ADME, organism-based
Parameters: time < 6 hr, dose 30 mg/kg, route oral
test-parameters: plasma
property: AUC(0-t) at 6 h (µg·h/mL)

INSERT INTO measurements (compound, experimental_value) VALUES
  ('CCC(CC)O[C@@H]1C=C(C(=O)O)C[C@H](N)[C@H]1NC(C)=O [OSELTAMIVIR CARBOXYLATE]', 2.96),
  ('CCOC(=O)C1=C[C@@H](OC(CC)CC)[C@H](NC(C)=O)[C@@H](N)C1', 2.28);

* * *

protocol: Tmax in juvenile breast-fed Sprague-Dawley rat at 30 mg/kg, po administered as water solution by HPLC-tandem mass spectrometry
Assay type: ADME, organism-based
Parameters: dose 30 mg/kg, route oral
test-parameters: in vivo
property: Tmax (h)

[A] CCC(CC)O[C@@H]1C=C(C(=O)O)C[C@H](N)[C@H]1NC(C)=O [OSELTAMIVIR CARBOXYLATE]
[B] CCOC(=O)C1=C[C@@H](OC(CC)CC)[C@H](NC(C)=O)[C@@H](N)C1 [OSELTAMIVIR]
Input line: // select label with min value of measured Tmax from [ A , B ] API: response body contains the label of the selected item.
Output line: B
(B: 1 h, A: 5 h)

* * *

protocol: AUC(0 to 5 hrs) in juvenile fasted Sprague-Dawley rat at 30 mg/kg, po administered as water solution by HPLC-tandem mass spectrometry
Assay type: ADME, organism-based
Set-up: time < 5 hr, dose 30 mg/kg, route oral
test-parameters: plasma
property: AUC(0-t) at 5 h (ng·h/mL)

[I] CCC(CC)O[C@@H]1C=C(C(=O)O)C[C@H](N)[C@H]1NC(C)=O [OSELTAMIVIR CARBOXYLATE]
[II] CCOC(=O)C1=C[C@@H](OC(CC)CC)[C@H](NC(C)=O)[C@@H](N)C1 [OSELTAMIVIR]
Input line: From the recorded data, which exceeds the other in AUC(0-t) at 5 h: I or II ? API: response body contains the label of the selected item.
Output line: II
(II: 29500 ng·h/mL, I: 12100 ng·h/mL)
